Measured IC50 accompanies every entry in the list below.
# system-name: HCV NS5B RdRp genotype 1b (Hepatitis C virus genotype 1b, UniProt Q9WMX2)
# Construct: The protein was expressed with an 18 amino acid C-terminal truncation to enhance the solubility; made in house; host or cells: E. coli BL21 (DE3), pET21a
# Sequence (Q9WMX2 2420-2992): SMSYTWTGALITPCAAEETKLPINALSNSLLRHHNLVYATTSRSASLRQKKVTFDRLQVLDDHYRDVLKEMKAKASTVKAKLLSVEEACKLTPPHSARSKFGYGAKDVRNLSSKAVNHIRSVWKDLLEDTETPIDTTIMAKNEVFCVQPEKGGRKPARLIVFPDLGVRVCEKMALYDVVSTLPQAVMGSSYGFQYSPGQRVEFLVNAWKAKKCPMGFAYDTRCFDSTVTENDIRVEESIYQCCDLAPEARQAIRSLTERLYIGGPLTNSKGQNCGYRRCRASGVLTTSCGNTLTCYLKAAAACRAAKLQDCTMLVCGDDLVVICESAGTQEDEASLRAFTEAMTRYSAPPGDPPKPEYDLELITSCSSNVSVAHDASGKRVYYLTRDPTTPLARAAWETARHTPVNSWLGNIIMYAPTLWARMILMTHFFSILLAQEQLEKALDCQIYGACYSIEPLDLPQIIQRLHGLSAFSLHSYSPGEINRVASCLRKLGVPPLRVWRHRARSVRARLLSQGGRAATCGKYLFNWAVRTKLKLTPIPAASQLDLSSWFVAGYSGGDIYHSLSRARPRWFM
# experiment-summary: Modified HCV NS5B RdRp enzyme assay (with preincubation)
# Type: biochemical
# measurement-setup: preincubation protocol
endpoint: IC50

• O=C(O)c1ccc2c(C3CCCCC3)c3n(c2c1)C(C(=O)N1CCOCC1)CCc1ccccc1-3 (centres unmarked) = > 12.5 µM
• COC(=O)c1ccc2c(C3CCCCC3)c3n(c2c1)CC(CO)=Cc1ccccc1-3 = > 1 µM
• COC(=O)c1ccc2c(C3CCCCC3)c3n(c2c1)CC(C(=O)O)=Cc1c(OC)cccc1-3 = 1 to 10 µM
• COc1ccc2c(c1)C=C(C(=O)N(C)CCO)Cn1c-2c(C2CCCCC2)c2ccc(C(=O)NS(=O)(=O)N(C)C)cc21 = < 0.02 µM
• COc1cccc2c1C=C(C(=O)N1C[C@@H](C)O[C@@H](C)C1)Cn1c-2c(C2CCCCC2)c2ccc(C(=O)O)cc21 = 0.01 to 1 µM
• C[C@@H]1CN(C(=O)C2=Cc3ccccc3-c3c(C4CCCCC4)c4ccc(C(=O)NC5(C(=O)Nc6nccs6)CCCC5)cc4n3C2)C[C@H](C)O1 = 0.01 to 1 µM
• COc1ccc2c(c1)CC(F)(C(=O)N1C[C@@H](C)O[C@@H](C)C1)Cn1c-2c(C2CCCCC2)c2ccc(C(=O)NS(=O)(=O)N(C)C)cc21 (some centres unmarked) = 0.01 to 1 µM
• C[C@@H]1CN(C(=O)C2=Cc3ccccc3-c3c(C4CCCCC4)c4ccc(C(=O)NC5(C(=O)Nc6ccc(-n7cncn7)cc6)CCCC5)cc4n3C2)C[C@H](C)O1 = 0.01 to 1 µM
• Cc1cc(CNC(=O)c2ccc3c(C4CCCCC4)c4n(c3c2)CC(C(=O)N2C[C@@H](C)O[C@@H](C)C2)=Cc2ccccc2-4)n[nH]1 = 0.01 to 1 µM
• COc1ccc2c(c1)CC(C(=O)N(C)CCO)Cn1c-2c(C2CCCCC2)c2ccc(C(=O)NS(=O)(=O)N(C)C)cc21 (centres unmarked) = 0.01 to 1 µM
• C[C@@H]1CN(C(=O)C2=Cc3cc(F)ccc3-c3c(C4CCCCC4)c4ccc(C(=O)O)cc4n3C2)C[C@H](C)N1 = 0.01 to 1 µM
• COc1ccc2c(c1)C=C(C(=O)N1CC(C)NC(C)C1)Cn1c-2c(C2CCCCC2)c2ccc(C(=O)NS(=O)(=O)N(C)C)cc21 (centres unmarked) = 0.01 to 1 µM
• CCN(C)C(=O)C1=Cc2cc(OC)ccc2-c2c(C3CCCCC3)c3ccc(C(=O)NS(=O)(=O)N(C)C)cc3n2C1 = 0.01 to 1 µM
• C[C@@H]1CN(C(=O)C2=Cc3cc(F)ccc3-c3c(C4CCCCC4)c4ccc(C(=O)NS(=O)(=O)N(C)C)cc4n3C2)C[C@H](C)O1 = 0.01 to 1 µM
• COc1ccc2c(c1O)C(O)n1c-2c(C2CCCCC2)c2ccc(C(=O)NS(=O)(=O)N(C)C)cc21 (centres unmarked) = 1 to 10 µM
• COc1ccc2c(c1)CC(C(=O)N1C[C@@H](C)N[C@@H](C)C1)Cn1c-2c(C2CCCCC2)c2ccc(C(=O)NS(=O)(=O)N(C)C)cc21 (some centres unmarked) = 0.01 to 1 µM
• COc1ccc2c(c1)C=C(C(=O)N(CCO)CCO)Cn1c-2c(C2CCCCC2)c2ccc(C(=O)NS(=O)(=O)N(C)C)cc21 = < 0.02 µM
• COC(=O)c1ccc2c(C3CCCCC3)c3n(c2c1)CC(C(=O)N1C[C@@H](C)O[C@@H](C)C1)=Cc1cc(OC)ncc1-3 = > 1 µM
• COC(=O)c1ccc2c(C3CCCCC3)c3n(c2c1)CC(C(=O)N1CCOCC1)=Cc1occc1-3 = > 4 µM
• CNS(=O)(=O)NC(=O)c1ccc2c(C3CCCCC3)c3n(c2c1)CC(C(=O)N1C[C@@H](C)O[C@@H](C)C1)Cc1ccccc1-3 (some centres unmarked) = 0.01 to 1 µM
• COC(=O)c1ccc2c(C3CCCCC3)c3n(c2c1)CC(C(=O)N1C[C@@H](C)O[C@@H](C)C1)=Cc1cc(F)ccc1-3 = > 1 µM
• COc1ccc2c(c1)CC(F)(C(=O)O)Cn1c-2c(C2CCCCC2)c2ccc(C(=O)NS(=O)(=O)N(C)C)cc21 (centres unmarked) = 0.01 to 1 µM
• COC(=O)c1ccc2c(C3CCCCC3)c3n(c2c1)C(C(=O)N1CCOCC1)CCc1ccccc1-3 (centres unmarked) = > 12.5 µM
• CNS(=O)(=O)NC(=O)c1ccc2c(C3CCCCC3)c3n(c2c1)CC(C(=O)N1C[C@@H](C)O[C@@H](C)C1)=Cc1cc(F)ccc1-3 = 0.01 to 1 µM
• COC(=O)c1ccc2c(C3CCCCC3)c3n(c2c1)CC(C(=O)N1C[C@@H](C)O[C@@H](C)C1)=Cc1occc1-3 = > 4 µM
• COc1ccc2c(c1)C=C(C(=O)N1CC[C@@H](O)C1)Cn1c-2c(C2CCCCC2)c2ccc(C(=O)NS(=O)(=O)N(C)C)cc21 = 0.01 to 1 µM
• COC(=O)C1=Cc2cc(N(C)C)ccc2-c2c(C3CCCCC3)c3ccc(C(=O)OC)cc3n2C1 = > 12.5 µM
• C[C@@H]1CN(C(=O)C2=Cc3ccccc3-c3c(C4CCCCC4)c4ccc(C(=O)NC5(C(=O)Nc6ccc(-c7cnco7)cc6)CCCC5)cc4n3C2)C[C@H](C)O1 = 0.01 to 1 µM
• COc1cccc2c1C=C(C(=O)N1C[C@@H](C)O[C@@H](C)C1)Cn1c-2c(C2CCCCC2)c2ccc(C(=O)NS(=O)(=O)N(C)C)cc21 = 0.01 to 1 µM
